Target: human GST-PIKFYVE (Homo sapiens, UniProt Q9Y2I7)
Construct: GST; purchased Carna biosciences 11-118
Sequence (Q9Y2I7 whole entry): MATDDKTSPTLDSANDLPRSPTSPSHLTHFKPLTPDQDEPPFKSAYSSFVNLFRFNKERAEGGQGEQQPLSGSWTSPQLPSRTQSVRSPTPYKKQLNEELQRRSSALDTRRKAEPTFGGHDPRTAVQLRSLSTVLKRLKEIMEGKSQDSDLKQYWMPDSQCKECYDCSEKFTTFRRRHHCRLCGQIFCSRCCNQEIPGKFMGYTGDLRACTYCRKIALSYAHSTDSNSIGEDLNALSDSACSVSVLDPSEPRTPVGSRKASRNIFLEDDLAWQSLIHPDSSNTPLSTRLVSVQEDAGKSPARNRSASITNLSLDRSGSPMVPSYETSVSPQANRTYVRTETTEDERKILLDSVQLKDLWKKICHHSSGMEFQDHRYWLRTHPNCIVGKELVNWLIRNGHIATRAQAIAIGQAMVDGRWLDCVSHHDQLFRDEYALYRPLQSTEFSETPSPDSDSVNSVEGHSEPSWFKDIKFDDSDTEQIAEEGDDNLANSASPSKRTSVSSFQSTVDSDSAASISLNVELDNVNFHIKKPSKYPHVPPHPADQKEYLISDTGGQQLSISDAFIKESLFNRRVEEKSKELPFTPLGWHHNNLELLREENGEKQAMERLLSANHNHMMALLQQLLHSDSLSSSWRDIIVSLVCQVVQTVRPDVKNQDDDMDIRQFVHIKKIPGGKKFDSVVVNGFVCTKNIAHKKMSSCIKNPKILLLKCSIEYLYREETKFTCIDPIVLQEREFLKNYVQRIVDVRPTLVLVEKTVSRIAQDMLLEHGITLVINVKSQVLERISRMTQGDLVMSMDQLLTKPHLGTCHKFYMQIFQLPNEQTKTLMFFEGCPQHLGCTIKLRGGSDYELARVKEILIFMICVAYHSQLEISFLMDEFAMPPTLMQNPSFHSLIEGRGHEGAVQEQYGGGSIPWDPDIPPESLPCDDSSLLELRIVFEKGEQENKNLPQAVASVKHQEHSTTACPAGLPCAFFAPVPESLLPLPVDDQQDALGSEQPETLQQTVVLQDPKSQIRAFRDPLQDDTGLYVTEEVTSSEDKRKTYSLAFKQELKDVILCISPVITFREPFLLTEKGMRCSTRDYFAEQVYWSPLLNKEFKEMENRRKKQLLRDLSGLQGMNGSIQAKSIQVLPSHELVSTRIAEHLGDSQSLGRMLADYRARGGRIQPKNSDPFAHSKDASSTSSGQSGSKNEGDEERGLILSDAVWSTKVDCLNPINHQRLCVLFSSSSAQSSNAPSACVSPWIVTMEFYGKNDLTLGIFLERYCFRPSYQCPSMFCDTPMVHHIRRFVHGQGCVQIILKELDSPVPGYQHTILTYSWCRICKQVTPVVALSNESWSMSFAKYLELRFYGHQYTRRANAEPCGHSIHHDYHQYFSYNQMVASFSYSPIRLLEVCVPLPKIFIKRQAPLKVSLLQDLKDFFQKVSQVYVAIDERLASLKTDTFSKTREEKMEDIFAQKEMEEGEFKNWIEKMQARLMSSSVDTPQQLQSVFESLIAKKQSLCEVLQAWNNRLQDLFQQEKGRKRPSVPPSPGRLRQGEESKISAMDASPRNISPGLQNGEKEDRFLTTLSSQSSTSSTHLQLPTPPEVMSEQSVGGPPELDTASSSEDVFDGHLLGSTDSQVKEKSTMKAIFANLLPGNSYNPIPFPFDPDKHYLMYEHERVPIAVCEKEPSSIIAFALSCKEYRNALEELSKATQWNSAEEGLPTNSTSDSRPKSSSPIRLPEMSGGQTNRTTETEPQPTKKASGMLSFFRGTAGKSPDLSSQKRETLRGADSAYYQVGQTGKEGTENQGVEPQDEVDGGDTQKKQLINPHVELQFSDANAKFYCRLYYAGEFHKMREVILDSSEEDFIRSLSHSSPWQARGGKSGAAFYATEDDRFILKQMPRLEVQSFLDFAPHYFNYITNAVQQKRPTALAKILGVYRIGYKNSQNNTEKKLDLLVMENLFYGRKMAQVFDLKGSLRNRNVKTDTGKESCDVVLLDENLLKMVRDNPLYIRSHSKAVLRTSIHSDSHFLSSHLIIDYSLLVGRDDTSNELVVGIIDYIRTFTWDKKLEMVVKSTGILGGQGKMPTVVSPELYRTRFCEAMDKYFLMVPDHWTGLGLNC
Experiment: ADP-Glo kinase assay, enzyme inhibition activity against human PIKFYVE (Carna biosciences)
Format: biochemical
Settings: inhibitory activity at final compound concentration 10 nM; 1 hour at room temperature
I'd be grateful if you could share measured ADP-Glo kinase assay (%, 10 nM) for these entries.
Report the figure in % without appending any unit label.

Looking up Cc1cccc(/C=N/Nc2nc(N3CCOCC3)nc3c2ncn3-c2cccc(C)n2)c1 , I found its ADP-Glo kinase assay (%, 10 nM) recorded as 88.29

# compound Cc1cccc(/C=N/Nc2nc(N3CCOCC3)nc3c2ncn3CC(=O)N2CCc3ccccc32)c1 ; its ADP-Glo kinase assay (%, 10 nM) = 55.15

Sample Cc1ccc(Nc2nc(N3CCOCC3)nc3c2ncn3/N=C/c2cccc(C)c2)cc1 ; ADP-Glo kinase assay (%, 10 nM) observed: 53.92

response.value for Cc1cccc(/C=N/Nc2nc(N3CCOCC3)nc3c2ncn3-c2ccc(C(F)(F)F)cc2)c1 (field: ADP-Glo kinase assay (%, 10 nM)) = 68.18

====

Target: human GST-PIKFYVE (Homo sapiens, UniProt Q9Y2I7)
Construct: GST; purchased Carna biosciences 11-118
Experiment: ADP-Glo kinase assay, enzyme inhibition activity against human PIKFYVE (Carna biosciences)
Format: biochemical
Settings: inhibitory activity at final compound concentration 10 nM; 1 hour at room temperature
Exercise: state measured ADP-Glo kinase assay (%, 10 nM) for each of the compounds provided.
I only need the number, in %, no unit after it.

Value of measured ADP-Glo kinase assay (%, 10 nM) for the entry Cc1cccc(/C=N/Nc2nc(N3CCOCC3)nc3c2ncn3-c2nccs2)c1 [Example 117] : 67.79

// sample Cc1cccc(/C=N/Nc2nc(N3CCOCC3)nc3c2ncn3CC(=O)c2cccn2C)c1 [Example 30] , its ADP-Glo kinase assay (%, 10 nM) was 76.90

The recorded ADP-Glo kinase assay (%, 10 nM) for entry Cc1cccc(/C=N/Nc2nc(N3CCOCC3)nc3c2ncn3C2CN(C(=O)c3ccccc3)C2)c1 [Example 81] equals 60.34

// field: ADP-Glo kinase assay (%, 10 nM); key: COc1cccc(-n2cnc3c(-n4ccc(-c5cccc(C)c5)n4)nc(N4CCOCC4)nc32)c1 [Example 137] ; value = 81.44

So for COc1cc(-n2cnc3c(N/N=C/c4cccc(C)c4)nc(N4CCOCC4)nc32)ccn1 [Example 101] , the logged ADP-Glo kinase assay (%, 10 nM) turned out to be 91.20

Just so you know, measured ADP-Glo kinase assay (%, 10 nM) for Cc1cccc(/C=N/Nc2nc(N3CCOCC3)nc3c2ncn3-c2cccc(OC3CC3)c2)c1 [Example 125] came out at 65.27

For record Cc1cccc(/C=N/Nc2nc(N3CCOCC3)nc3c2ncn3CC(=O)c2ccc(F)cc2)c1 [Example 47] the listed ADP-Glo kinase assay (%, 10 nM) is 60.82

The compound identified as Cc1ccc(/C=N/n2cnc3c(Nc4ccncc4)nc(N4CCOCC4)nc32)cc1 [Example 168] registered its ADP-Glo kinase assay (%, 10 nM) at 87.26

Entry under test: Cc1cccc(/C=N/Nc2nc(N3CCOCC3)nc3c2ncn3CCc2ccccn2)c1 [Example 73] . Its ADP-Glo kinase assay (%, 10 nM) was 80.98

Reported ADP-Glo kinase assay (%, 10 nM) of Cc1cccc(/C=N/Nc2nc(N3CCOCC3)nc3c(-c4c(C)noc4C)cccc23)c1 [Example 210] : 65.10

Lookup result for Cc1cccc(/C=N/Nc2nc(N3CCOCC3)nc3c(-c4cccnc4)cccc23)c1 [Example 215] ; measured ADP-Glo kinase assay (%, 10 nM): 81.70

Sample Cc1cccc(/C=N/Nc2nc(N3CCOCC3)nc3c2ncn3-c2cc(C)n(C)n2)c1 [Example 147] ; ADP-Glo kinase assay (%, 10 nM) observed: 88.80

# compound Cc1cccc(/C=N/n2cnc3c(Nc4cc(C)no4)nc(N4CCOCC4)nc32)c1 [Example 198] ; its ADP-Glo kinase assay (%, 10 nM) = 75.59

Please fill in: ADP-Glo kinase assay (%, 10 nM) reported for COc1ccc(Nc2nc(N3CCOCC3)nc3c2nc(C)n3/N=C/c2cccc(C)c2)cc1 [Example 205] = 53.74

Lab note: COc1cccc(-n2cnc3c(N/N=C/c4cccc(C)c4)nc(N4CCOCC4)nc32)c1 [Example 121] gave ADP-Glo kinase assay (%, 10 nM) of 92.33

Value of measured ADP-Glo kinase assay (%, 10 nM) for the entry Cc1cccc(-c2ccn(-c3nc(N4CCOCC4)nc4c3ncn4-c3cccc(Cl)c3)n2)c1 [Example 135] : 51.18

Record Cc1cccc(/C=N/Nc2nc(N3CCOCC3)nc3c(-c4ccncc4)cccc23)c1 [Example 212] , field ADP-Glo kinase assay (%, 10 nM): 88.34
